Where do these numbers come from? They come from patent US12319655B2.

STUDY_SYSTEM: A-Raf kinase (SEQ. ID No: 1) (Homo sapiens (Human), UniProt P10398, Y301D/Y302D)
Sequence (P10398 other isoform, or with tags, fused parts or gaps Y301D (already in the parent)/Y302D (already in the parent)): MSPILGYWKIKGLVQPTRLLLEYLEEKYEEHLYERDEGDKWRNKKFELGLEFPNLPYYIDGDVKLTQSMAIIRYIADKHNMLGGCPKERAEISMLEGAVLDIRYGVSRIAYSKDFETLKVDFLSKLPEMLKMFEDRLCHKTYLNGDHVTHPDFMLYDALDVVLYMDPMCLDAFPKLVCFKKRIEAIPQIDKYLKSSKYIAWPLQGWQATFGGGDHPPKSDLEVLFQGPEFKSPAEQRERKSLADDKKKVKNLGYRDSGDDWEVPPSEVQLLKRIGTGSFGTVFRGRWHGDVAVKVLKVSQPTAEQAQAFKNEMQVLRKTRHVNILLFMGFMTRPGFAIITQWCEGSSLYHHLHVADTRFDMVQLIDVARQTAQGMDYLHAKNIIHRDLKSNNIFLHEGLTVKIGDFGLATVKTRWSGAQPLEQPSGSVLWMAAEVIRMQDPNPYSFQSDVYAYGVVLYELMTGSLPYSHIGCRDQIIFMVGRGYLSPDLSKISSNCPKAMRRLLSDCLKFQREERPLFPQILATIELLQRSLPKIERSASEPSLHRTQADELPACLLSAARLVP
MEASUREMENT_PROTOCOL: Biochemical Assay for A-Raf (1)
CONDITION_NOTES: Table J, assay version (1); read-out: ARAF (1) IC50
MEASURED_PROPERTY: IC50

Cc1cc(F)c(NC(=O)c2ccnc(C(F)(F)F)c2)cc1-c1ccnc(-c2ccnc(NC=O)c2)c1	1000 to 10000 nM

Query :: Recorded IC50 for CC(=O)Nc1cc(-c2nccc(-c3cc(NC(=O)c4ccnc(C(F)(F)F)c4)ccc3C)n2)ccn1 , please?
Result :: 500 to 1000 nM

Query :: Cc1ccc(NC(=O)c2ccnc(C(C)(C)C#N)c2)cc1-c1cccc(-c2ccnc3[nH]ccc23)c1 , same question.
Result :: 1000 to 10000 nM

Query :: CO[C@H]1CC[C@H](C(=O)Nc2cnc(C)c(-c3cccc(-c4cc(NC(=O)C5CC5)ncn4)c3)c2)CC1 , same question.
Result :: 1000 to 10000 nM

Query :: Cc1ccc(NC(=O)c2ccnc(C(C)(C)C#N)c2)cc1-c1cc(-c2cc(NC(=O)C3CC3)ncn2)cc(C2CC2)c1 , same question.
Result :: 1000 to 10000 nM

Query :: COC(C)(C)c1cc(C(=O)Nc2ccc(C)c(-c3cc(-c4ccnc(NC(=O)C5CC5)c4)cnn3)c2)ccn1 , same question.
Result :: 1000 to 10000 nM

Query :: CNC(=O)c1cc(-c2cccc(-c3cc(NC(=O)c4ccnc(C(C)(C)C#N)c4)ccc3C)c2)ncn1 , same question.
Result :: 1000 to 10000 nM
